Please go through the items and note down their concentration as compared to the initial value.
Assay: Storage stability in solutions and hornbeam bark extracts (UHPLC-DAD)
Assay type: physicochemical
Conditions: 12 weeks, 5 °C, SA (aqueous solution)
Procedure: For the analysis of the samples from the chemical stability as well as the PAMPA studies, sample concentrations were determined using our previously developed ultrahigh-performance liquid chromatography–diode array detection (UHPLC-DAD) method validated for linearity, precision and accuracy. […] The effects of the temperature and the medium (i.e., solvent and accompanying substances) were analysed through one-way analysis of variance (ANOVA) followed by Tukey’s post hoc HSD test (p < 0.05). […]
Marks after values point to notes of the source that are not given here.

Enquiry: I have this compound here, O=C1CCC(=O)C(O)Cc2ccc(O)c(c2)-c2cc(ccc2O)C1 (stereo not shown) [Compound 4] , and I need its recorded concentration as compared to the initial value.
Return: 100.5 ± 0.7 ^ab %

Enquiry: Likewise for O=C1C[C@H](O)[C@@H](O)Cc2ccc(O)c(c2)-c2cc(ccc2O)C[C@H]1O [Compound 1, carpinontriol A] ?
Return: 91.4 ± 0.2 ^#def %

Enquiry: Likewise for O=C1CCc2ccc(O)c(c2)-c2cc(ccc2O)C[C@@H](O)[C@H](O)C1 [Compound 3, giffonin X] ?
Return: 99.3 ± 0.1 ^#bcd %

Enquiry: Likewise for O=C1CCc2ccc(O)c(c2)-c2cc(ccc2O)C[C@H](O)[C@H](O)[C@H]1O [Compound 2, carpinontriol B] ?
Return: 99.9 ± 0.4 ^a %
